Documented pIC50 across a set of molecules
# Tested on: U-937
# procedure-details: Cytotoxicity against human U937 cells after 48 hrs by MTT assay
# Assay type: functional, cell-based
# conditions-used: U-937, 48 h
pIC50: −log10 of the molar value.

Look over these answered cases.
molecule | pIC50
CC(C)c1c(O)ccc2c1C[C@@H](O)[C@H]1C(C)(C)C(=O)CC[C@]21C | < 4.40
CC(C)c1ccc2c(c1O)C[C@@H](O)[C@H]1[C@@](C)(CO)CCC[C@]21C | < 4.40
CC(C)c1c(O)ccc2c1CC[C@H]1[C@@](C)(CO)C(=O)CC[C@]21C | < 4.40
C=C[C@@]1(C)CCC2=C(CC[C@H]3C(C)(C)[C@@H](O)CC[C@]23C)C1 | < 4.40
C=C[C@]1(C)CC2(O)CC[C@H]3C(C)(C)C(=O)C=C[C@]3(C)[C@H]2CC1=O (stereo partly drawn) | < 4.40
C=C[C@]1(C)C=C2CC[C@H]3C(C)(C)C(=O)CC[C@]3(C)[C@H]2CC1 | < 4.40
C=C[C@]1(C)C[C@]2(O)CC[C@H]3C(C)(C)C(=O)CC[C@]3(C)[C@H]2CC1=O | < 4.40

Consider now this further molecule.
The molecule listed as `CC(C)c1c(O)ccc2c1CC[C@H]1C(C)(C)[C@@H](O)CC[C@]21C` has a reported pIC50 of 4.61
